Would you kindly list IC50 for each of these compounds?
# Tested on: human hepatocarcinoma HepG2 cells
# test: Cell viability assay (MTT), cytotoxic activity
# Format: cell-based
# condition_details: 24 h, MTT; read-out: HepG2 IC50 (cytotoxic effect)

Per the records, this compound ( Cc1cc(O)c(O)c2oc3cc(O)cc(O)c3c(=O)c12 [Compound 7, 1,3,5,6-tetrahydroxy-8-methylxanthone] ) has IC50 equal to > 100 µM

***
Memo: Cc1cc(O)cc2oc3cc(O)cc(O)c3c(=O)c12 , reported IC50: > 100 µM

###

Would you kindly list IC50 at 24 h for each of these molecules?
# test: Cell viability assay (MTT), cytotoxic activity
# Format: cell-based, rat
# condition_details: rat; 24 h, MTT; read-out: H9c2 IC50 (cytotoxic effect)

The reported IC50 at 24 h of the molecule CC1=CC(=O)OCC1 [Compound 11, 5,6-dihydro-4-methyl-2H-pyran-2-one] was > 100 µM

Read the next record carefully.
The molecule listed as COc1cc(O)c2c(=O)c3c(C)cc(O)cc3oc2c1 shows IC50 at 24 h equal to > 100 µM
